Biological target: T1, Rat CTGF (Rattus norvegicus, UniProt Q9R1E9)
T1 construct: purchased R&D Systems
T1 sequence (Q9R1E9 25-347): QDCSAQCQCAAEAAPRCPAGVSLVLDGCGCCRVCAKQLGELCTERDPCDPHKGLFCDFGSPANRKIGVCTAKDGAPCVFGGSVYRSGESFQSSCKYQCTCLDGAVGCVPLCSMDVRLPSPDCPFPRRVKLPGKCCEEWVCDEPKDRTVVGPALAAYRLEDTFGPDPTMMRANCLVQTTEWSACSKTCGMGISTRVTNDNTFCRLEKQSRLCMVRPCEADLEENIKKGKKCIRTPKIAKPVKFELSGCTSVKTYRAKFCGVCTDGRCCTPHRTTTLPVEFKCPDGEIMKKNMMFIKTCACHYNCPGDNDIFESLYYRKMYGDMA
Assay: SPR binding kinetics and affinity, rat CTGF
Details: 25° C., 1:1 binding model
Listed below: Rat CTGF koff values for each entry.

MOLECULE: SEQ ID NO: 24: optimized CTGF-binding hNGAL lipocalin mutein (protein, lipocalin mutein) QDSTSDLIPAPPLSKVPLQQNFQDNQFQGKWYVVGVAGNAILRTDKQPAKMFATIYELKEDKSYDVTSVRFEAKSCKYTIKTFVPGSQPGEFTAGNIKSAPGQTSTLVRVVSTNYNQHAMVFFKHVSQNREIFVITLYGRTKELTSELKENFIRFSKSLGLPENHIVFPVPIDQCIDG
Rat CTGF koff / s⁻¹: 3.51e-05
--
MOLECULE: SEQ ID NO: 31: optimized CTGF-binding hNGAL lipocalin mutein (protein, lipocalin mutein) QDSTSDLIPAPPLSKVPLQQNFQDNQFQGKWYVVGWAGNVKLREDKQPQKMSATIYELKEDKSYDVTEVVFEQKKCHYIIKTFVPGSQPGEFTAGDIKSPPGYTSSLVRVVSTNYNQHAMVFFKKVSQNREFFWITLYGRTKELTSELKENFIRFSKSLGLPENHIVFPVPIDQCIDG
Rat CTGF koff / s⁻¹: 0.000423
--
MOLECULE: SEQ ID NO: 15: optimized CTGF-binding hNGAL lipocalin mutein (protein, lipocalin mutein) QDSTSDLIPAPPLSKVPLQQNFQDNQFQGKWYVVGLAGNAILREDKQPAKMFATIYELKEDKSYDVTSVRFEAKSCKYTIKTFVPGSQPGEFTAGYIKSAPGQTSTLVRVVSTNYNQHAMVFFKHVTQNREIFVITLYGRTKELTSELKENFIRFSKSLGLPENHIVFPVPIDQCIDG
Rat CTGF koff / s⁻¹: 0.000114
